Examples of binders with documented % Inhibition of VEGF165-mediated pTyr Activity, Average follow.
# Target System: human KDR (VEGFR2) on cells (human, UniProt P35968 20-1356); also: test concentration or dose not given here
# Sequence (P35968 20-1356): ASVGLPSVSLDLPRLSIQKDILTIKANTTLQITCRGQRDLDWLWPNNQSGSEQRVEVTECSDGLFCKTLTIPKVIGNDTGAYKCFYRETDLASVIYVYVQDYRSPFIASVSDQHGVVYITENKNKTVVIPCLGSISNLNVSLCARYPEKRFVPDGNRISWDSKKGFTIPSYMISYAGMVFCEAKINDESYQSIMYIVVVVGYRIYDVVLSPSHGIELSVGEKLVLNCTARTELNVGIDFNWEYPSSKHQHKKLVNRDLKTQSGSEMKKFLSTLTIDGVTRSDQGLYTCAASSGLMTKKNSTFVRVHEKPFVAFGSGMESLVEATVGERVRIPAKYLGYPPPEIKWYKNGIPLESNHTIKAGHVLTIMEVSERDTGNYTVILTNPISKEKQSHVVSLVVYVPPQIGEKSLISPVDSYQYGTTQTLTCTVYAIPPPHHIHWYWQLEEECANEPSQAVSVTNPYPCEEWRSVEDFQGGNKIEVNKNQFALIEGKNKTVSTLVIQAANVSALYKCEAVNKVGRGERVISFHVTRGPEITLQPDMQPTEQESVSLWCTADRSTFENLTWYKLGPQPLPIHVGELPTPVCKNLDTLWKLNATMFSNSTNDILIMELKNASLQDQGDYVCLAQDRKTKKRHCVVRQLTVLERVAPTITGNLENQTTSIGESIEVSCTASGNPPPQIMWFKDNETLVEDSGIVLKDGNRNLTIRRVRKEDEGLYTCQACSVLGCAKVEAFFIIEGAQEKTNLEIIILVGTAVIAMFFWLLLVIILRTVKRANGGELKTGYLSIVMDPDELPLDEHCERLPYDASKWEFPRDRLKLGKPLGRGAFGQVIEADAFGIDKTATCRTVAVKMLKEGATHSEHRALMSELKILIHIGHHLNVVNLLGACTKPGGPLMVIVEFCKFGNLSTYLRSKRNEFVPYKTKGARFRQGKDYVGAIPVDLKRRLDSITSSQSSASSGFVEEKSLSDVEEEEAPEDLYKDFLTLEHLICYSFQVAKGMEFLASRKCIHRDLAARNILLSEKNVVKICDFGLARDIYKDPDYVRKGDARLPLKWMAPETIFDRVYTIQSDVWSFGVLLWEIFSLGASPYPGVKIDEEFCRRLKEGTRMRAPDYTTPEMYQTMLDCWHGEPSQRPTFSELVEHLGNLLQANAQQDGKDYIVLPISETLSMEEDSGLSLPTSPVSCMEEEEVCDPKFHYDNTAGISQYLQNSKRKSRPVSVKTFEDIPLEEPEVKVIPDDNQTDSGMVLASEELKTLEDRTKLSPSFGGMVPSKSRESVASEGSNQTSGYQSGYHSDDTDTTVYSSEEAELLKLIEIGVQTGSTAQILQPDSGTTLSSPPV
# Method: cell-based or functional assay

Reference set (2 entries):
- Binder: "anti-KDR monoclonal antibody 30A1 (antibody, V domains shown, Fully human mAb from XenoMouse (IgG2 or IgG4 strain); hybridoma supernatant) VH: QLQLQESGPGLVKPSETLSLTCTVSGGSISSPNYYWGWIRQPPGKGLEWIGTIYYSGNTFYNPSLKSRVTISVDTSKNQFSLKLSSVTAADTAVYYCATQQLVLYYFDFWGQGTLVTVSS VL: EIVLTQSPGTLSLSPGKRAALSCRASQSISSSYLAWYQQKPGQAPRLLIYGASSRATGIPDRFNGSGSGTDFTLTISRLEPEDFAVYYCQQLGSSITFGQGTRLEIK"
  Assay Result: "65%"
- Binder: "anti-KDR monoclonal antibody 24B3 (antibody, V domains shown, Fully human mAb from XenoMouse (IgG2 or IgG4 strain); hybridoma supernatant) VH: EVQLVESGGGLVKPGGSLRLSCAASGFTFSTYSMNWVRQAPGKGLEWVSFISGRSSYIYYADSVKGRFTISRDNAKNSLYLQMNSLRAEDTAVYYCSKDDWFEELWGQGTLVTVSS VL: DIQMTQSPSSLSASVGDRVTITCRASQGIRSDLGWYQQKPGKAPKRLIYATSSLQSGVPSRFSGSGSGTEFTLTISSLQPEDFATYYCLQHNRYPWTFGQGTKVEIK"
  Assay Result: "51%"

Let us move to another entry and its % Inhibition of VEGF165-mediated pTyr Activity, Average.
Q: Please look up its % Inhibition of VEGF165-mediated pTyr Activity, Average: anti-KDR monoclonal antibody 33B1 (antibody, V domains shown, Fully human mAb from XenoMouse (IgG2 or IgG4 strain); hybridoma supernatant) VH: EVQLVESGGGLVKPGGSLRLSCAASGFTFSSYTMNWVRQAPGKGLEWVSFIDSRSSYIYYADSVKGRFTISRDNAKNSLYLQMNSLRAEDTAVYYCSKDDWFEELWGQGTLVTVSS VL: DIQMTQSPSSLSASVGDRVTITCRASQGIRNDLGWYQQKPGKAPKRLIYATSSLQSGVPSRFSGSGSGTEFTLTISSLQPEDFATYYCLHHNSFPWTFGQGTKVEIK
Ans: 54%
